The measured values listed here are drawn from BindingDB's records for doi:10.1021/ja011034p.

target: Carbonic anhydrase 2 [F130V] (Homo sapiens, UniProt P00918, F130V); assay: In vitro binding of inhibitor to hCA-II; settings: pH 7.4; 37 °C
Measured Kd, listed per entry.
Give just the number in nM; leave the unit off.

Solved cases below.
Prompt: Please provide the recorded Kd for NS(=O)(=O)c1ccc(C(=O)NCc2cccc(F)c2F)cc1 , tested on Carbonic anhydrase 2 [F130V] (Homo sapiens, UniProt P00918, F130V).
Response: 1.6

Prompt: Please provide the recorded Kd for NS(=O)(=O)c1ccc(C(=O)NCc2ccccc2F)cc1 , tested on Carbonic anhydrase 2 [F130V] (Homo sapiens, UniProt P00918, F130V).
Response: 2.3

Prompt: Please provide the recorded Kd for NS(=O)(=O)c1ccc(C(=O)NCc2c(F)c(F)c(F)c(F)c2F)cc1 , tested on Carbonic anhydrase 2 [F130V] (Homo sapiens, UniProt P00918, F130V).
Response: 2

Further cases:
Prompt: Please provide the recorded Kd for NS(=O)(=O)c1ccc(C(=O)NCc2c(F)cccc2F)cc1 , tested on Carbonic anhydrase 2 [F130V] (Homo sapiens, UniProt P00918, F130V).
Response: 3.9
